meta.source: ChEMBL document CHEMBL1131231

System: Candida albicans
assayProcedure: In vivo antifungal activity against murine candidosis model after peroral administration with 0.5 mg/kg at various time intervals. (percent protection for 100% mortality with untreated group)
Format: functional
testConditions: route oral
propertyLabel: Protection (%)
Field format: number, assumed %, no unit text.

query: Please look up its Protection: C[C@@H](NC(=O)c1ccn(-c2ccc(Cl)cc2)c1)[C@](O)(Cn1cncn1)c1ccc(F)cc1F
result: 0

query: # get_value(readout='Protection', item= Cc1nc(-c2ccc(C#N)cc2)sc1C(=O)N[C@H](C)[C@](O)(Cn1cncn1)c1ccc(C(F)(F)F)cc1 )
result: 0

query: For the compound shown here, Cc1cc(-c2ccc(Cl)cc2)sc1C(=O)N[C@H](C)[C@](O)(Cn1cncn1)c1ccc(F)cc1F , give the reported Protection.
result: 100

query: # Protection lookup, item C[C@@H](NC(=O)c1ccc(-c2ccc(Cl)cc2)s1)[C@](O)(Cn1cncn1)c1ccc(F)cc1F
result: 100
